# Experiment: Metabolic stability in rat liver microsomes assessed as half-life measured upto 60 mins by LC-MS/MS analysis
# Type: ADME, Microsome
Here the recorded half-life is given for each entry.
Measurement Label: half-life

{"Compound": "CC(=O)N[C@H]1[C@H](OCCCCC(=O)NCCOCCOCCOCCOCCn2cc(COP(=O)(COCCn3cnc4c(N)ncnc43)OCOC(=O)C(C)(C)C)nn2)O[C@H](CO)[C@H](O)[C@H]1O (some centres not stated)", "Measurement Label": "half-life", "Observed Result": "2.33 min"}
{"Compound": "CC(=O)N[C@H]1[C@H](OCCCCC(=O)NCCOCCOCCOCCOCCn2cc(COP(=O)(CO[C@H](C)Cn3cnc4c(N)ncnc43)OCOC(=O)C(C)(C)C)nn2)O[C@H](CO)[C@H](O)[C@H]1O (some centres not stated)", "Measurement Label": "half-life", "Observed Result": "2.13 min"}
